For each record, write down the corresponding MIC.
- Test system: Klebsiella pneumoniae
- Protocol Details: Colistin adjuvant activity against colistin-resistant Klebsiella pneumoniae BA03057 assessed as antibacterial effect by measuring colistin MIC incubated for 24 hrs under aerobic condition by two fold serial dilution method; also: test concentration or dose not given here
- Assay type: functional
Give bare numbers, in µg/mL.

See these solved cases before continuing.
{"Query Smiles": "O=C(NCCc1c[nH]c2ccccc12)Nc1ccc(Cl)cc1", "Value Reported": 4}
{"Query Smiles": "O=C(NCCc1c[nH]c2ccccc12)Nc1ccccc1F", "Value Reported": 8}
{"Query Smiles": "CC(C)c1ccc(NC(=O)NCCc2c[nH]c3ccccc23)cc1", "Value Reported": 16}
{"Query Smiles": "CCCCCCNC(=O)NCCc1c[nH]c2ccccc12", "Value Reported": 2}
{"Query Smiles": "O=C(NCCc1c[nH]c2ccccc12)NCc1ccccc1", "Value Reported": 8}

Please give MIC, item by item, for the list that follows.
1. COc1ccc(NC(=O)NCCc2c[nH]c3ccccc23)cc1
2. CC(C)(C)NC(=O)NCCc1c[nH]c2ccccc12
3. O=C(NCCc1c[nH]c2ccccc12)Nc1ccccc1
4. O=C(NCCc1c[nH]c2ccccc12)Nc1ccccc1Br
5. O=C(NCCc1c[nH]c2ccccc12)Nc1ccc(F)cc1

16
8
8
2
8

Please give MIC, item by item, for the list that follows.
1. O=C(NCCc1c[nH]c2ccccc12)Nc1cccc(F)c1
2. O=C(NCCc1c[nH]c2ccccc12)Nc1ccccc1Cl
3. O=C(NCCc1c[nH]c2ccccc12)Nc1cccc(Cl)c1

1
8
2
